- measured-target: one or more of HDAC-4, HDAC-5, HDAC-6, HDAC-7, HDAC-8, HDAC-9, HDAC-10 and HDAC-11
- assay-details: Inhibition of histone deacetylase enzymatic activity (summary statement over isoforms)
- condition-parameters: Table 3, selected examples; HDAC isoform not given
For each of the compounds below, state its IC50.

Completed entries (count: 5):
{"compound": "O=C(NO)C(c1ccccc1)c1cccc(OCc2cccc(Cl)c2)c1 (stereo not shown)", "experimental-result": "< 1000 nM"}
{"compound": "CC(C)CCOc1cccc(C(C(=O)NO)c2ccccc2)c1 (stereo not shown)", "experimental-result": "1000 to 15000 nM"}
{"compound": "C=CCCOc1cccc(C(C(=O)NO)c2ccccc2)c1 (stereo not shown)", "experimental-result": "1000 to 15000 nM"}
{"compound": "O=C(NO)C(c1ccc(N2CCOCC2)cc1)c1cccc(F)c1 (stereo not shown)", "experimental-result": "< 1000 nM"}
{"compound": "O=C(NO)C(Oc1ccc(-c2ccccc2)cc1)c1ccccc1 (stereo not shown)", "experimental-result": "1000 to 15000 nM"}

Respectfully, I request IC50 for each entry included below.
1. O=C(NO)C(c1ccccc1)c1ccc(N2CCC(N3CCCC3)CC2)cc1 (stereo not shown)
2. Cc1cc(C)cc(COc2ccc(C(C(=O)NO)c3ccccc3)cc2)c1 (stereo not shown)
3. COc1ccccc1-c1nnc(C(C(=O)NO)c2ccccc2)s1 (stereo not shown)
4. Cc1ccc(S(=O)(=O)N2CCN(C3(C(=O)NO)CCc4ccccc43)CC2)cc1 (stereo not shown)

Reply:
["< 1000 nM", "< 1000 nM", "< 1000 nM", "1000 to 15000 nM"]

Give measured IC50 for every item shown.
1. O=C(NO)C(c1ccccc1)c1ccc(N2CCN(S(=O)(=O)c3ccccc3)CC2)cc1 (stereo not shown)
2. CN(C)c1ccc(C(C(=O)NO)c2ccccc2)c2ccccc12 (stereo not shown)

Reply:
< 1000 nM
1000 to 15000 nM
